# System: S. pneumoniae - penicillin resistant (51915)
# ASSAY SUMMARY: MIC, broth microdilution (NCCLS M7-A5)
# Format: cell-based
# COND: S. pneumoniae - penicillin resistant; Table 3
REPORTED METRIC: MIC (µg/mL)
Give just the number in µg/mL; leave the unit off.

Enquiry: Read the entry COC(=O)c1[nH]c(C(=O)OC)c(-c2c[nH]c3ccc(Cl)cc23)c1-c1c[nH]c2ccc(Cl)cc12 [VI] and write its reported MIC.
Return: 20

Enquiry: Give the value of MIC reported for the following: COC(=O)c1[nH]cc(-c2c[nH]c3ccc(Cl)cc23)c1-c1c[nH]c2ccc(Cl)cc12 [III]
Return: 24

Enquiry: Given the compound COC(=O)c1[nH]cc(-c2c[nH]c3cc(Cl)c(Cl)cc23)c1-c1c[nH]c2ccc(Cl)cc12 [II] , write its reported MIC.
Return: 8

Enquiry: Annotate the compound Clc1cc2[nH]cc(-c3c[nH]cc3-c3c[nH]c4cc(Cl)c(Cl)cc34)c2cc1Cl [IV] with its measured MIC.
Return: 20

---

# System: S. aureus - MSSA (29213)
# ASSAY SUMMARY: MIC, broth microdilution (NCCLS M7-A5)
# Assay type: cell-based
# COND: Table 4; averages of 2 experiments, * single experiment; both values given when differing >2 fold; in µg/mL
Provide the recorded MSSA 29213 MIC for the entries that follow.

Enquiry: Answer briefly: MSSA 29213 MIC recorded on S. aureus - MSSA (29213) for "O=C(O)c1[nH]cc(-c2c[nH]c3ccc(Cl)cc23)c1-c1c[nH]c2ccc(Cl)cc12"
Return: 12*

Enquiry: For S. aureus - MSSA (29213), give MSSA 29213 MIC of the listed compound: "COC(=O)c1[nH]c(C(=O)OC)c(-c2c[nH]c3ccc(F)cc23)c1-c1c[nH]c2ccc(F)cc12"
Return: 8*

Enquiry: Name the value of MSSA 29213 MIC reported for "COC(=O)c1[nH]c(C(=O)OC)c(-c2c[nH]c3ccc(F)cc23)c1-c1c[nH]c2ccccc12" when tested on S. aureus - MSSA (29213).
Return: 16*

Enquiry: Return reported MSSA 29213 MIC for target or system S. aureus - MSSA (29213), item "O=C(O)c1[nH]c(C(=O)O)c(-c2c[nH]c3ccc(Cl)cc23)c1-c1c[nH]c2ccc(Cl)cc12" .
Return: >16

Enquiry: Write down measured MSSA 29213 MIC (S. aureus - MSSA (29213)) for this compound. "COC(=O)c1[nH]cc(-c2c[nH]c3cc(Cl)c(F)cc23)c1-c1c[nH]c2ccc(F)cc12"
Return: 1*

Enquiry: Give measured MSSA 29213 MIC for "COC(=O)c1[nH]c(C(=O)OC)c(-c2c[nH]c3ccccc23)c1-c1c[nH]c2ccccc12" (S. aureus - MSSA (29213)).
Return: >32

Enquiry: Please look at "COC(=O)c1[nH]cc(-c2c[nH]c3cc(Cl)c(Cl)cc23)c1-c1c[nH]c2ncccc12" and tell me its recorded MSSA 29213 MIC on S. aureus - MSSA (29213).
Return: 6

Enquiry: Report measured MSSA 29213 MIC on S. aureus - MSSA (29213); entry: "COC(=O)c1[nH]c(C(=O)OC)c(-c2c[nH]c3ccc(Cl)cc23)c1-c1c[nH]c2ccc(F)cc12"
Return: 4

Where do these numbers come from? They come from patent US7166634B2.
